Data origin: patent US9580437B2

target: wild type PRC2 (wtPRC2) complex (Homo sapiens (Human), UniProt O75530); assay: EED LC-MS assay; conditions: read-out: (b) IC50 EED LC-MS Qualified
Sequence (O75530 whole entry): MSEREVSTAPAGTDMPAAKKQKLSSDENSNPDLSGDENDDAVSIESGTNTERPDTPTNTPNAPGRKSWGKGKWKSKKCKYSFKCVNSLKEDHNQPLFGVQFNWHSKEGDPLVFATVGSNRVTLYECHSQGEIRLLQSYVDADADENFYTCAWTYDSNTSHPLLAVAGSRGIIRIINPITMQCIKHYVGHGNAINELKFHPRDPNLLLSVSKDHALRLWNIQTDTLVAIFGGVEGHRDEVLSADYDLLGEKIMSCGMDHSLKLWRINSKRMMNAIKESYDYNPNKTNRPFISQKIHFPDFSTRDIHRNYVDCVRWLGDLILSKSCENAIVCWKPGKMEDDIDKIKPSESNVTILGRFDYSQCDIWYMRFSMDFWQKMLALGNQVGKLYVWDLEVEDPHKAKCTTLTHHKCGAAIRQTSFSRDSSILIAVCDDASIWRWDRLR
Sequence (Q15910 whole entry partner): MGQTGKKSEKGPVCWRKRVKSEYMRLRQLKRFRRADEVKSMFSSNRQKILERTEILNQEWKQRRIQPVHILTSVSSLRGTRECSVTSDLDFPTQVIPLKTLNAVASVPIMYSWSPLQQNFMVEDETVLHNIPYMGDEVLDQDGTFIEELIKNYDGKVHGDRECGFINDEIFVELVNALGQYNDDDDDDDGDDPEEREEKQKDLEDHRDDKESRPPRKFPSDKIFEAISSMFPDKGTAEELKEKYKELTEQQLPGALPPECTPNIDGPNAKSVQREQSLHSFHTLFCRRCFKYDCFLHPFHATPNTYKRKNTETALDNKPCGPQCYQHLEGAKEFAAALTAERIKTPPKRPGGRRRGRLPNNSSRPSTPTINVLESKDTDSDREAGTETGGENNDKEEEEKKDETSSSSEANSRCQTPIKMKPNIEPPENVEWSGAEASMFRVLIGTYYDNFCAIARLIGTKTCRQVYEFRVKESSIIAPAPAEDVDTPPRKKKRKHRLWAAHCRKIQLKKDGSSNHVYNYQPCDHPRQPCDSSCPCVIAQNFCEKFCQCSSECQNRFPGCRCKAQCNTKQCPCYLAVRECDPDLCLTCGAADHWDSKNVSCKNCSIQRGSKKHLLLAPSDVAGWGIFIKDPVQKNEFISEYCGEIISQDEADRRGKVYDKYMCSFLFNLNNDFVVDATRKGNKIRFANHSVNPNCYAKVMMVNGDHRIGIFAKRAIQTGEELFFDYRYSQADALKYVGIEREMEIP
Sequence (Q15022 whole entry partner): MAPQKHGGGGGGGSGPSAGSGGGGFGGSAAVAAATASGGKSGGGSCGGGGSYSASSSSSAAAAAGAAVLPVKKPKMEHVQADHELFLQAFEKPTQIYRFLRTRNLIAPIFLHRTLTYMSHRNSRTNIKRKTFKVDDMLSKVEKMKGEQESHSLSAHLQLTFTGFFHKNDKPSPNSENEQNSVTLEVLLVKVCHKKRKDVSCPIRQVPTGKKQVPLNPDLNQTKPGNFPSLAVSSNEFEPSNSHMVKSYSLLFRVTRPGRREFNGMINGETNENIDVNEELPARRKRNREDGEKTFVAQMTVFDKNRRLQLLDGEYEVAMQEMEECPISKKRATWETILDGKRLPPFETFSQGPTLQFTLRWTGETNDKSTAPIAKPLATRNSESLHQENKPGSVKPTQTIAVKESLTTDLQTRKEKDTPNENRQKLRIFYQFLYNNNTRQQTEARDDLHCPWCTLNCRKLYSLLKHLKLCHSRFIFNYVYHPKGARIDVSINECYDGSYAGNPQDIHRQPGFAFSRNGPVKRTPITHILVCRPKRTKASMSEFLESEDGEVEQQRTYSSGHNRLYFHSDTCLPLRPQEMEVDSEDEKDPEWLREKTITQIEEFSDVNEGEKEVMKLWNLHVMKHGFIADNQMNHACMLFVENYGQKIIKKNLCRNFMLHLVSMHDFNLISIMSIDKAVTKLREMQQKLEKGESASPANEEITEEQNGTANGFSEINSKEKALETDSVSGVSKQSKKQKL
MEASURED PROPERTY: IC50 (nM)
Supply the numeric figure in nM, leaving out any unit text.

Consider the worked cases shown below.
O=CN1CCN(c2ccc(-c3cnc(NCc4cccc5c4CCO5)n4cnnc34)cn2)CC1; 30.5
CS(=O)(=O)Nc1ccc(-c2cnc(NCc3cccc4c3CCO4)n3cnnc23)cc1F; 17.5
Cc1ccc(-c2cnc(NCc3cccc4c3CCO4)n3cnnc23)cn1; 47
Fc1ccc2c(c1CNc1ncc(-c3cncnc3)c3nncn13)CCO2; 9.5

Read the next record carefully.
Query IC50 on wild type PRC2 (wtPRC2) complex (Homo sapiens (Human), UniProt O75530) for `CCc1ccc(-c2cnc(NCc3c(F)ccc4c3CCO4)n3cnnc23)c(C)n1`
6.7
